TESTED_SYSTEM: human CYP2C9 (Homo sapiens, UniProt P11712)
Sequence (P11712 whole entry): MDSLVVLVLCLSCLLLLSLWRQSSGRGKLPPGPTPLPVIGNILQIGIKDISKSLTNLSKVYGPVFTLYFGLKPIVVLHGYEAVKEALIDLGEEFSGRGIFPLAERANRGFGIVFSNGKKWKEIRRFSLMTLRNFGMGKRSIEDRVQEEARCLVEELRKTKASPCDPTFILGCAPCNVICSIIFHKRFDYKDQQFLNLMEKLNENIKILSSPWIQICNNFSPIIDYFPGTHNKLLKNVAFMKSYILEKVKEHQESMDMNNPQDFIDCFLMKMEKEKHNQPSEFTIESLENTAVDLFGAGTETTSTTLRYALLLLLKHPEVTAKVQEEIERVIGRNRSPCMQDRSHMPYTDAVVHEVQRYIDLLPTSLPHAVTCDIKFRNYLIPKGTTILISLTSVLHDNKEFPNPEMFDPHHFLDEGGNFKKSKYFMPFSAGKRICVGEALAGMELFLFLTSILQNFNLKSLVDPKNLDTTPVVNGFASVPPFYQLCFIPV
TEST_NAME: biochemical
CONDITION_DETAILS: CYP2C9 AC50 (half-maximal activity concentration)
PROPERTY_NAME: AC50

>>> reported_result("C[C@]12CC[C@@H]3c4ccc(O)cc4CC[C@H]3[C@@H]1C[C@@H](O)[C@@H]2O [Estriol]")
"21 µM"
>>> reported_result("Fc1ccc(C(c2ccc(F)cc2)N2CCN(C/C=C/c3ccccc3)CC2)cc1 [Flunarizine]")
"14.9 µM"
>>> reported_result("CC(C)(C)c1cc([N+](=O)[O-])cc([N+](=O)[O-])c1O [Dinoterb]")
"17.8 µM"
>>> reported_result("CCNc1nc(Cl)nc(NCC)n1 [Simazine]")
"5.09 µM"
>>> reported_result("O=C(O)C(c1ccc(Cl)cc1)c1ccc(Cl)cc1 [p,p'-DDA]")
"15.4 µM"
>>> reported_result("NS(=O)(=O)c1cc2c(cc1Cl)CN(C1CCCCC1)C2=O [Chlorexolone]")
"14.4 µM"
>>> reported_result("CCC(C)(C)c1ccc(O)cc1 [4-(2-Methylbutan-2-yl)phenol]")
"14.8 µM"
>>> reported_result("ClC(Cl)(Cl)c1ccc(C(Cl)(Cl)Cl)cc1 [1,4-Bis(trichloromethyl)benzene]")
"34.2 µM"
>>> reported_result("CC(Oc1cc(Cl)c(Cl)cc1Cl)C(=O)O (stereo not shown) [2-(2,4,5-Trichlorophenoxy)propionic acid]")
"28.4 µM"
>>> reported_result("CCC(=O)Oc1ccc(/C(CC)=C(\\CC)c2ccc(OC(=O)CC)cc2)cc1 [Diethylstilbestrol dipropionate]")
"21.2 µM"
>>> reported_result("CC(=O)OCC(=O)[C@H]1CC[C@H]2[C@@H]3CCC4=CC(=O)CC[C@]4(C)[C@H]3CC[C@]12C [Deoxycorticosterone acetate]")
"5.67 µM"
>>> reported_result("CC(O)(c1ccc(Cl)cc1)c1ccc(Cl)cc1 [Chlorfenethol]")
"7.68 µM"
>>> reported_result("CCOC(=O)C(C)Oc1ccc(Oc2nc3ccc(Cl)cc3o2)cc1 (stereo not shown) [Fenoxaprop-ethyl]")
"44 µM"

###

TESTED_SYSTEM: Photinus pyralis (firefly) luciferase (Photinus pyralis, UniProt P08659)
Sequence (P08659 whole entry): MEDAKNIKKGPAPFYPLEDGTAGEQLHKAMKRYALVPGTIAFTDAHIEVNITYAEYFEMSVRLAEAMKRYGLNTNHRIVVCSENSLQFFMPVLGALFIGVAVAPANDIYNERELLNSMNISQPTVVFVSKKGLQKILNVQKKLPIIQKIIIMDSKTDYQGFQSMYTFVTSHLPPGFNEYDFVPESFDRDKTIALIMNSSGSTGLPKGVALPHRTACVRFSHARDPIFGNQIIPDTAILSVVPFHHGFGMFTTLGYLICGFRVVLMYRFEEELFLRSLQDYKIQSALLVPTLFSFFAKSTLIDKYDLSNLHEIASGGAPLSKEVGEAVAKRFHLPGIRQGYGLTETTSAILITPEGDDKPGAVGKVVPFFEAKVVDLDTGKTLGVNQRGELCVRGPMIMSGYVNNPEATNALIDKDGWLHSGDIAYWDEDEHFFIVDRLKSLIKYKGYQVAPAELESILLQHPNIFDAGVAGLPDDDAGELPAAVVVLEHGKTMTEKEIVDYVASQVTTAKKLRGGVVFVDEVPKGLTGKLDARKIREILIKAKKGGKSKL
TEST_NAME: biochemical
Type: biochemical
CONDITION_DETAILS: read-out: Luciferase IC50 (half-maximal inhibitory concentration)
pIC50: −log10 of the molar value.
We begin with a simple list: items and their reported pIC50.
PROPERTY_NAME: pIC50

>>> reported_result("CCCCCCCCCCCCCCCCCC(=O)O.OCCN(CCO)CCO [Triethanolamine stearate]")
4.13
>>> reported_result("CC(=O)c1ccc2ccc3ccccc3c2c1 [3-Acetylphenanthrene]")
4.48
>>> reported_result("COc1cc(-c2ccc(N)c(OC)c2)ccc1N.Cl.Cl [3,3'-Dimethoxybenzidine dihydrochloride]")
4.22
>>> reported_result("O=C1CCCc2c1cc1ccc3cccc4ccc2c1c34 [9,10-Dihydrobenzo[a]pyren-7(8H)-one]")
5.01
>>> reported_result("CCOP(=O)([O-])OCC.CCn1cc[n+](C)c1")
4.06
>>> reported_result("O=C(Nc1ccccc1SSc1ccccc1NC(=O)c1ccccc1)c1ccccc1 [2,2'-Dibenzoylaminodiphenyl disulfide]")
5.47
>>> reported_result("Cn1ccc2cc3c(cc21)CCN3C(=O)Nc1cccnc1 [SB-206553]")
5.32

###

Record set of CYP2C9 Efficacy for target or system human CYP2C9 (Homo sapiens).
PROPERTY_NAME: CYP2C9 Efficacy

>>> reported_result("CCC(CN)=C(c1ccccc1)c1ccccc1.Cl [Etifelmine hydrochloride]")
"11.85 ± 3.88 (-96 ± 8) %"
>>> reported_result("Cc1[nH]cnc1C[C@H]1CCc2c(C)c3ccccc3n2C1=O.Cl [Fabesetron hydrochloride]")
"0.51 ± 0.09 (-90 ± 4) %"
>>> reported_result("O=S(=O)(Oc1ccc(Cl)cc1)c1ccccc1")
"34.28 ± 2.23 (-89 ± 7) %"
>>> reported_result("CCCCCCCCCCCCCC[P+](CCCC)(CCCC)CCCC.CCCCCCCCCCCCc1ccc(S(=O)(=O)[O-])cc1")
"15.74 ± 3.82 (-84 ± 8) %"
>>> reported_result("Cc1ccc2nc(N)[nH]c(=O)c2c1Sc1ccncc1.Cl.Cl [Nolatrexed dihydrochloride]")
"4.82 ± 1.17 (-95 ± 9) %"
>>> reported_result("CCCCCCCCCCCCCCCC[N+](C)(C)Cc1ccccc1.[Cl-] [Benzylhexadecyldimethylammonium chloride]")
"46.2 ± 8.63 (-120 ± 17) %"
>>> reported_result("Clc1ccc2c(c1)Nc1ccccc1S2")
"11.4 ± 3.88 (-60 ± 10) %"
>>> reported_result("Cl.Cl.NCCNc1cccc2ccccc12")
"17.25 ± 2.37 (-110 ± 3) %"
>>> reported_result("CC(=O)/C=C/c1ccc2c(c1)OCO2")
"8.04 ± 0.92 (-118 ± 10) %"
>>> reported_result("Cl.FC(F)(F)c1cccc(C2=CCN(CCc3ccc4ccccc4c3)CC2)c1 [Xaliproden hydrochloride]")
"22.52 ± 6.28 (29 ± 5) %"
>>> reported_result("Nc1nc2ccc([N+](=O)[O-])cc2s1")
"59.75 ± 4.61 (-39 ± 3) %"
>>> reported_result("CCOc1cc(OCC)c(C(C)=O)cc1OCC")
"37.98 ± 5.23 (-54 ± 11) %"

###

# Lookup of reported log10(AC50) keyed by entry
TESTED_SYSTEM: human CYP2D6 (Homo sapiens, UniProt P10635)
Sequence (P10635 whole entry): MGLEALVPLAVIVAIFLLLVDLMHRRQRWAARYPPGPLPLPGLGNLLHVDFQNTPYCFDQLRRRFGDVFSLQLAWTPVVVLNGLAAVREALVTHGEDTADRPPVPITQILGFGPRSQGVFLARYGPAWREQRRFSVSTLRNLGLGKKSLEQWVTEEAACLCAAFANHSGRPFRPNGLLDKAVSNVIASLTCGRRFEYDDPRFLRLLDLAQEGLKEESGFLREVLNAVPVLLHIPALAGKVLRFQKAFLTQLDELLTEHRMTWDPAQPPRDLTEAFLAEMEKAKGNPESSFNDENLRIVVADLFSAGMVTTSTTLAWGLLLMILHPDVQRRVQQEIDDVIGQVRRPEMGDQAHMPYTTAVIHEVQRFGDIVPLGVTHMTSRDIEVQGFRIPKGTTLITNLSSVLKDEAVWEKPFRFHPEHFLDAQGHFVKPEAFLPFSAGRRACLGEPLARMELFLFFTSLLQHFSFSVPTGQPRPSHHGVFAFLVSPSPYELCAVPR
TEST_NAME: biochemical
CONDITION_DETAILS: CYP2D6 AC50 (half-maximal activity concentration)
PROPERTY_NAME: log10(AC50) (log10 of the value in µM)

>>> reported_result("c1ccc(CSCc2ccccc2)cc1 [Benzyl sulfide]")
1.79
>>> reported_result("Cc1ccccc1OP(=O)(Oc1ccccc1C)Oc1ccccc1C [Tri-o-cresyl phosphate]")
1.64
>>> reported_result("CCCSP(=O)(OCC)Oc1ccc(Br)cc1Cl (stereo not shown)")
1.14
>>> reported_result("CC(C)(C)c1ccc(O)c(O)c1")
0.96
>>> reported_result("CCCCCC(C=O)=Cc1ccccc1")
1.69
>>> reported_result("COC(=O)c1cc(Oc2ccc(Cl)cc2Cl)ccc1[N+](=O)[O-]")
1.40
>>> reported_result("CN1CCC(=C2c3ccccc3CC(=O)c3sccc32)CC1")
0.34

###

TESTED_SYSTEM: human CYP1A2 (Homo sapiens, UniProt P05177)
TEST_NAME: biochemical
CONDITION_DETAILS: CYP1A2 AC50 (half-maximal activity concentration)
Binary label based on AC50 with cut-off 8 µM: below gives Satisfied, not below gives Not satisfied.

>>> class_assignment("CCOC(=O)C(C)Oc1ccc(Oc2nc3ccc(Cl)cc3o2)cc1 (stereo not drawn)")
"Not satisfied"
>>> class_assignment("COC(=O)c1cc(Oc2ccc(Cl)cc2Cl)ccc1[N+](=O)[O-]")
"Not satisfied"
>>> class_assignment("O=C(c1ccccc1)C(O)c1ccccc1 (stereo not drawn)")
"Not satisfied"
>>> class_assignment("CCOC(=O)c1ccccc1C(=O)OCC [Diethyl phthalate]")
"Satisfied"
>>> class_assignment("N#Cc1c[nH]cc1-c1cccc2c1OC(F)(F)O2")
"Satisfied"

###

TESTED_SYSTEM: human CYP2D6 (Homo sapiens)
TEST_NAME: biochemical
CONDITION_DETAILS: CYP2D6 IC50 (half-maximal inhibitory concentration)
pIC50: −log10 of the molar value.
PROPERTY_NAME: pIC50

>>> reported_result("CC(C)C(O)(c1ccc(OC(F)(F)F)cc1)c1cncnc1 (stereo not drawn)")
4.99
>>> reported_result("FC(F)C(F)(F)OCC(Cn1cncn1)c1ccc(Cl)cc1Cl (stereo not drawn)")
4.91
>>> reported_result("CCOc1cc(C(C)(C)C)ccc1C1COC(c2c(F)cccc2F)=N1 (stereo not drawn)")
4.98

###

TESTED_SYSTEM: UniProtKB P05177
Sequence (P05177 1-516): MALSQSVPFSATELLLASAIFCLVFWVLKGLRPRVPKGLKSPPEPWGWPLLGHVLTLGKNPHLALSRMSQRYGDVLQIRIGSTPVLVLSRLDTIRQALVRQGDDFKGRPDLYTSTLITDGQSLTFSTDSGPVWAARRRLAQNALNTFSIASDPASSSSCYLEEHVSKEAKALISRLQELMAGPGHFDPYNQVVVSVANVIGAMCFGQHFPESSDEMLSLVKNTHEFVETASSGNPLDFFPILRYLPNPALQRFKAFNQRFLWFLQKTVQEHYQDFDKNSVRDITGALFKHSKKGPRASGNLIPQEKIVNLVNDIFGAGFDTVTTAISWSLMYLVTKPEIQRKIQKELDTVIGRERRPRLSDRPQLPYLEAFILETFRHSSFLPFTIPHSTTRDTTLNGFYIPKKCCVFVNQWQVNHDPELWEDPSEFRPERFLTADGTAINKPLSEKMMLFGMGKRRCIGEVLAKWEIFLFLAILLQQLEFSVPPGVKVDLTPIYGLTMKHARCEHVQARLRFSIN
TEST_NAME: biochemical
CONDITION_DETAILS: CYP1A2 IC50 (half-maximal inhibitory concentration)
pIC50: −log10 of the molar value. Counter-ions that a name gives are not always drawn.
PROPERTY_NAME: pIC50

>>> reported_result("CCCCN(CCCC)CCCOC(=O)c1ccc(N)cc1")
4.65
>>> reported_result("C#CCOS(=O)OC1CCCCC1Oc1ccc(C(C)(C)C)cc1 (stereo not drawn)")
5.11
>>> reported_result("COC(=O)c1c(C(F)F)nc(C(F)(F)F)c(C2=NCCS2)c1CC(C)C")
6.40
>>> reported_result("CCCOC/C(=N\\c1ccc(Cl)cc1C(F)(F)F)n1ccnc1")
5.03
>>> reported_result("CCN(CC)c1c([N+](=O)[O-])cc(C(F)(F)F)c(N)c1[N+](=O)[O-]")
6.52
>>> reported_result("CC(C)(C)C(=O)C(Oc1ccc(Cl)cc1)n1cncn1 (stereo not drawn)")
4.43
>>> reported_result("CC(C)C(O)(c1ccc(OC(F)(F)F)cc1)c1cncnc1 (stereo not drawn)")
4.20
>>> reported_result("COP(=S)(OC)Oc1ccc([N+](=O)[O-])c(C)c1")
5.98
>>> reported_result("Nc1ccc2c(c1)CN1C(=O)c3ccccc3C1=N2")
6.17
>>> reported_result("Cl[C@H]1[C@H](Cl)[C@@H](Cl)[C@H](Cl)[C@@H](Cl)[C@H]1Cl")
4.45
>>> reported_result("COc1ccc(-c2coc3cc(O)ccc3c2=O)cc1")
4.84
>>> reported_result("CCCC1COC(Cn2cncn2)(c2ccc(Cl)cc2Cl)O1 (stereo not drawn)")
4.61
>>> reported_result("CCCCC(C#N)(Cn1cncn1)c1ccc(Cl)cc1 (stereo not drawn)")
4.48
>>> reported_result("CCOP(=S)(OCC)Oc1ccc2c(C)c(Cl)c(=O)oc2c1")
5.46
>>> reported_result("ClC(c1ccccc1)(c1ccccc1)c1ccccc1 [Trityl chloride]")
4.12
>>> reported_result("CC(C)(C)C(O)C(Oc1ccc(Cl)cc1)n1cncn1 (stereo not drawn)")
4.47
>>> reported_result("OC(c1ccc(F)cc1)(c1cncnc1)c1ccccc1Cl (stereo not drawn)")
4.31
>>> reported_result("CCCc1c(OCCCCc2nnn[nH]2)ccc(C(C)=O)c1O")
4.27
>>> reported_result("Cc1ccc2c(c1N)C(=O)c1ccccc1C2=O")
6.24
>>> reported_result("CC(C)[N+](C)(CCC(C(N)=O)(c1ccccc1)c1ccccc1)C(C)C [Isopropamide]")
4.52
>>> reported_result("CCOP(=S)(OCC)Oc1ccc([N+](=O)[O-])cc1")
6.00
>>> reported_result("Clc1ccc(C2(Cn3cncn3)CC(Br)CO2)c(Cl)c1 (stereo not drawn)")
4.66
>>> reported_result("CN1[C@@H]2CC[C@H]1C[C@@H](OC(=O)c1cc(Cl)cc(Cl)c1)C2")
4.84
>>> reported_result("COc1ccc(CN(CCN(C)C)c2ncccn2)cc1 [Thonzylamine hydrochloride]")
4.73
>>> reported_result("C[Si](Cn1cncn1)(c1ccc(F)cc1)c1ccc(F)cc1")
4.55
>>> reported_result("Brc1c(Br)c(Br)c(Br)c(Br)c1Br")
7.05
>>> reported_result("N#Cc1c(Cl)c(Cl)c(Cl)c(C#N)c1Cl")
5.99
>>> reported_result("CN(C)C(=O)Nc1ccc(Cl)c(Cl)c1")
6.07
>>> reported_result("CC(O)(c1ccc(Cl)cc1)c1ccc(Cl)cc1")
4.51
>>> reported_result("ClC(Cl)=C(c1ccc(Cl)cc1)c1ccc(Cl)cc1")
5.44
>>> reported_result("O[C@@H](COc1cccc2ncccc12)CN1CCN([C@@H]2c3ccccc3[C@@H]3[C@H](c4ccccc42)C3(F)F)CC1 [Zosuquidar trihydrochloride]")
4.81
>>> reported_result("CCCN(CCOc1c(Cl)cc(Cl)cc1Cl)C(=O)n1ccnc1")
6.66
>>> reported_result("CCOP(=S)(OCC)SC(CCl)N1C(=O)c2ccccc2C1=O (stereo not drawn)")
4.16
